- System: SK-OV-3
- experimentalProtocol: NCI tumour cell line growth inhibition, 48 h
Activity calls are given as the source filed them. Rule as the data show it: active = GI50 up to about 1.1 µM and inactive = higher.
Write down the outcome that applies. Available outcomes: active, inactive

{"compound": "O=C1C(N2CCN(c3ccccn3)CC2)=C(Cl)C(=O)c2ncccc21", "targetUnderTest": "SK-OV-3", "assignedCategory": "inactive"}

Assay outcome for CC(=O)C1C(=O)C(=O)N(c2cccc(C)c2C)C1=O (centres undefined) : what was it?
inactive

Assay outcome for OCCOCn1nncc1Cn1ncc2c(SCc3ccccc3)ncnc21 : what was it?
inactive

###

- System: MDA-N
- experimentalProtocol: NCI tumour cell line growth inhibition, 48 h
The source made the active and inactive calls. Rule as the data show it: active = GI50 up to about 1.1 µM and inactive = higher.
Write down the outcome that applies. Available outcomes: YES (active), NO (inactive)

Example entries begin here.
{"smilesRepresentation": "CO[C@@H]1C[C@H](OC(N)=O)[C@@H]2C=C[C@@H]3/C=C(C)/C=C/[C@@H](C)[C@H]([C@H](C)[C@H](O)[C@@H](C)NC(C)=O)OC(=O)/C=C/C=C(C)\\C=C\\[C@]3(C)[C@@H]2C1", "assignedCategory": "YES"}
{"smilesRepresentation": "Cc1ccc(-n2nncc2[Si](C)(C)C)s1", "assignedCategory": "NO"}

Continue with the compound presented below.
Assay outcome for O=C1C(N2CCN(c3ccccn3)CC2)=C(Cl)C(=O)c2ncccc21 : what was it?
NO

###

- Tested on: BT-549
- experimentalProtocol: NCI tumour cell line growth inhibition, 48 h
Active and inactive are the calls of the source. Rule as the data show it: active = GI50 up to about 1.1 µM and inactive = higher.
Measured GI50, listed per entry.

Examples from the recorded data:
{"compound": "Cc1cn(C2CC(N)C(C(=O)NCC(=O)O)O2)c(=O)[nH]c1=O (configuration not stated)", "valueKind": "GI50", "observed": "> 100 µM (inactive)"}
{"compound": "Cc1ccc(S(=O)(=O)Nn2c(-c3ccccc3)c(C#N)c(-c3ccc(Cl)cc3)c(C#N)c2=O)cc1", "valueKind": "GI50", "observed": "18.5 µM (inactive)"}
{"compound": "COC(=O)C(CCC1C=CN(S(=O)(=O)c2ccc(C)cc2)C1)/N=C/c1ccccc1 (configuration not stated)", "valueKind": "GI50", "observed": "39.6 µM (inactive)"}
{"compound": "O=C1CSC(c2ccccc2[N+](=O)[O-])N1c1ccc(-c2ccc(-n3c(-c4ccccc4)nc4ccccc4c3=O)cc2)cc1 (configuration not stated)", "valueKind": "GI50", "observed": "> 100 µM (inactive)"}
{"compound": "Oc1c(C2=NNC(c3cccs3)C2)ccc2ccccc12 (configuration not stated)", "valueKind": "GI50", "observed": "32.5 µM (inactive)"}
{"compound": "CC[C@H](C)[C@H]1NC(=O)[C@@H](NC(=O)[C@@H](CC(C)C)N(C)C(=O)C2CCCN2C(=O)[C@H](C)O)[C@@H](C)OC(=O)[C@H](Cc2ccc(OC)cc2)N(C)C(=O)[C@@H]2CCCN2C(=O)[C@H](CCCCNC(=O)OCc2ccccc2)NC(=O)[C@H](C)C(=O)[C@H](C(C)C)OC(=O)C[C@@H]1O (some centres not stated)", "valueKind": "GI50", "observed": "7.93 µM (inactive)"}

With those in mind, consider the next compound.
Requested read-out GI50, target or system BT-549, entry Nc1ccc(C(=O)N2CCC[C@H]2CO)c(N)c1
> 100 µM (inactive)

###

- System: M19-MEL
- experimentalProtocol: NCI tumour cell line growth inhibition, 48 h
Activity calls are given as the source filed them. Cut-off read from the data, not from the text of the source: active = GI50 up to about 1.1 µM and inactive = higher.
valueKind: GI50

Examples from the recorded data:
{"compound": "Cc1cccc2[s+]snc12", "GI50": "> 60.3 µM (inactive)"}
{"compound": "O=C(NCCCCCCNC(=O)OCCSCCn1cc(C(=O)NC(=O)OCc2ccccc2)c(=O)[nH]c1=O)OCCSCCn1cc(C(=O)NC(=O)OCc2ccccc2)c(=O)[nH]c1=O", "GI50": "> 100 µM (inactive)"}
{"compound": "COc1ccc2cc3[n+](cc2c1OC)CCc1cc(O)c(O)cc1-3", "GI50": "> 100 µM (inactive)"}
{"compound": "C[C@H]1CC[P+](Cc2ccccc2)(c2ccccc2)C1 (stereo not given in full)", "GI50": "26.8 µM (inactive)"}

With those in mind, consider the next compound.
Find the recorded GI50 belonging to O=c1[nH]c(=O)n([C@H]2C[C@@H](CO)[C@@H](O)C2)cc1I and report it.
> 100 µM (inactive)

###

- Test system: RXF 393
- experimentalProtocol: NCI tumour cell line growth inhibition, 48 h
Activity calls are given as the source filed them. Rule as the data show it: active = GI50 up to about 1.1 µM and inactive = higher.
Write down the outcome that applies. Available outcomes: 1 = active, 0 = inactive

Example entries begin here.
{"compound": "CCOc1ccccc1NC(=O)C(=O)Cc1nc2ccccc2s1", "targetUnderTest": "RXF 393", "assignedCategory": 0}
{"compound": "CCOC(=O)C1(C/C=C(/C)Cl)CCCC1=O (centres undefined)", "targetUnderTest": "RXF 393", "assignedCategory": 0}
{"compound": "CCOC(=O)C1CC(=O)C=C2CCCCC21 (centres undefined)", "targetUnderTest": "RXF 393", "assignedCategory": 0}
{"compound": "O=C(NCCCCCCNC(=O)OCCSCCn1cc(C(=O)NC(=O)OCc2ccccc2)c(=O)[nH]c1=O)OCCSCCn1cc(C(=O)NC(=O)OCc2ccccc2)c(=O)[nH]c1=O", "targetUnderTest": "RXF 393", "assignedCategory": 0}

Assay outcome for CCOC(=O)c1oc2ccc(OC)c3c2c1CCC3 : what was it?
0

Assay outcome for CC(C)(C)OC(=O)N1CCc2[nH][nH]c(=O)c2C1 : what was it?
0

Assay outcome for O=[PH](O)c1cc2c3ccccc3ccc2c2ccccc12 : what was it?
0

Assay outcome for C[Si](C)(C)c1ccc(-c2sc(-c3ccc([Si](C)(C)C)s3)c3c2C[Si]2(C3)Cc3c(-c4ccc([Si](C)(C)C)s4)sc(-c4ccc([Si](C)(C)C)s4)c3C2)s1 : what was it?
0

Assay outcome for CC1OC(O)C(O)C(O)C1O (centres undefined) : what was it?
0

Assay outcome for S=C(/N=C1/NCC(CN2CCN(c3ccccc3)CC2)O1)Nc1ccccc1 (centres undefined) : what was it?
0

Assay outcome for O=CC(O)C(O)C(O)C(O)C(=O)NCCCCCCCCCCCCNC(=O)C(O)C(O)C(O)C(O)C=O (centres undefined) : what was it?
0

Assay outcome for C=C1C(O)C2OC(=O)C(=C)C2C(OC(=O)/C(C)=C/C)CC2(C)OC2C2OC12 (centres undefined) : what was it?
0

Assay outcome for COC(=O)C(Cc1ccc2c(c1)CCC2)Cc1ccc2c(c1)CCC2 : what was it?
0

Assay outcome for COc1ccccc1NC(=O)CC(=O)n1nc(C)c(/N=N/c2ccccc2Cl)c1C : what was it?
0

Assay outcome for Cc1cccc2[s+]snc12 : what was it?
0

Assay outcome for COc1cc(/C=C2\CC3C4CC[C@H]5C[C@@H](O)CC[C@]5(C)C4CC[C@]3(C)C2=O)cc(OC)c1OC (some centres undefined) : what was it?
0

Assay outcome for CCCCCCC(N)(CCCCCC)C(=O)Nn1c(C)ccc1C : what was it?
0

Assay outcome for O=C(CC(C(=O)c1ccco1)c1ccco1)c1ccco1 (centres undefined) : what was it?
0

Assay outcome for Cc1ccc(Nc2nc3c(s2)C(=O)c2ccccc2C3=O)c(C)c1 : what was it?
0

Assay outcome for CS(=O)(=O)N(CC(=O)O)Cc1ccccc1 : what was it?
0

Assay outcome for COc1cc([C@H]2c3[nH]c4ccccc4c3C[C@H]3COC(=O)N32)cc(OC)c1O : what was it?
1

Assay outcome for COc1cc2nc3n(c2cc1OC)C(O)c1c(Cl)nc(SC)nc1S3 (centres undefined) : what was it?
0

Assay outcome for CCCC(=O)N[C@H]1C2C3CC4C5CC(C42)C1(C)C53 (some centres undefined) : what was it?
0

###

- Test system: BT-549
- experimentalProtocol: NCI tumour cell line growth inhibition, 48 h
Activity calls are given as the source filed them. No stated cut-off is given here; in the data, active = GI50 up to about 1.1 µM and inactive = higher.
Measured GI50, listed per entry.

{"compound": "O=P(O)(O)c1ccc2c(c1)OCCOCCOCCOCCO2", "valueKind": "GI50", "observed": "> 100 µM (inactive)"}
{"compound": "[N-]=[N+]=CC(=O)OC1CCc2ccccc21 (stereo unspecified)", "valueKind": "GI50", "observed": "> 100 µM (inactive)"}
{"compound": "Cc1cc2c(cc1Cl)SC(N/N=C(\\N)c1ccc(Cl)cc1)=NS2(=O)=O", "valueKind": "GI50", "observed": "46.7 µM (inactive)"}

With those in mind, consider the next compound.
Find the recorded GI50 belonging to CC1=CC(=O)N(n2c(-c3ccccc3)n[nH]c2=O)C1=O and report it.
> 100 µM (inactive)

###

- Test system: DLD-1
- experimentalProtocol: NCI tumour cell line growth inhibition, 48 h
Activity calls are given as the source filed them. Rule as the data show it: active = GI50 up to about 1.1 µM and inactive = higher.
Write down the outcome that applies. Available outcomes: t (active), f (inactive)

Example entries begin here.
{"molecule": "C=CCc1cc(-c2cc(CC=C)c(O)c(CNCCCl)c2)cc(CNCCCl)c1O", "assignedCategory": "f"}
{"molecule": "COC(=O)C(C(=O)C(=O)Nc1nnc(S)[nH]1)c1csc(-n2nc(-c3ccccc3)cc2-c2ccccc2)n1 (centres undefined)", "assignedCategory": "f"}
{"molecule": "COC(=O)C1C(=O)NC2(C)CC1c1ccccc1O2 (centres undefined)", "assignedCategory": "f"}
{"molecule": "COC(=O)c1cc(-c2cccn2C)c2c(c1C(=O)OC)c1ccccc1n2C", "assignedCategory": "f"}
{"molecule": "COC1=CC(=O)[C@H]2[C@H](C)C(c3ccccc3)[C@@]2(C)C1=O (some centres undefined)", "assignedCategory": "f"}

Assay outcome for Cc1cccc(NC(=O)/C(=N\N)C(c2cnc3ccc([N+](=O)[O-])cc3n2)[N+](=O)[O-])c1C (centres undefined) : what was it?
f

Assay outcome for CCOC(=O)C1(C/C=C(/C)Cl)CCCC1=O (centres undefined) : what was it?
f

Assay outcome for O=C1C(Cl)C(c2ccccc2)N1n1cnc2ccccc2c1=O (centres undefined) : what was it?
f
